- Tested on: LOX IMVI melanoma
- assay_overview: NCI tumour cell line growth inhibition, 48 h
Where a SMILES comes first, the peptide text is derived from it. [ ]: non-standard residue; d: D form. The star is where a group is joined. X28 = COC1=CC(=O)N(C(=O)[C@@H](O*)C(C)C)[C@H]1Cc1ccccc1; NMeV = CN[C@H](C(=O)O)C(C)C; Hexanoyl = CCCCCC(=O)*
measured_attribute: TGI

Problem: State the recorded TGI for this entry: CCCC(C)c1cc(Cc2cc(Cl)cc(Cl)c2O)c(O)c(Cc2cc(Cl)cc(Cl)c2O)c1 (stereo not given)
Result: 8.89 µM

Problem: Same again, this time with "C/C(=N\NS(=O)(=O)c1ccccc1)c1ccc(Cl)c(Cl)c1"
Result: > 100 µM

Problem: Field entry: CSc1ccc(C2OC(=O)c3ccccc32)c2ccccc12 (stereo not given)
Result: > 100 µM

Problem: Would you mind doing "COc1ccc(-c2nc3sc4c(c3c(=O)[nH]2)CCCCCC4)cc1" as well?
Result: > 33.2 µM

Problem: What do we get for "S=c1sc2c(s1)SCCCCSCCCCSc1sc(=S)sc1SCCCCSCCCCS2" ?
Result: > 100 µM

Problem: Next up: "Cc1ccc(C2=Nc3cccc4cccc(c34)N2)cc1"
Result: > 100 µM

Problem: Then "O=C(COc1ccc2c(=O)cc(-c3ccccc3)oc2c1)N1CCN(c2ccccc2)CC1" ?
Result: > 100 µM

Problem: And then "CCOC(=O)CSc1nc(N)c2c(-c3ccc(OC)c(OC)c3)c3c(nc2n1)CCCC3" , what is it?
Result: > 100 µM

Problem: Next up: "Cc1cccc2nc3c(C(=O)NCCN(C)C)cccc3cc12"
Result: 4.76 µM

Problem: // repeat for "C=CCOc1cccc(/C=C2\SC(=Nc3ccc(O)cc3)NC2=O)c1" and report
Result: 12.7 µM

Problem: What about "O=C(O)/C=C\C(=O)N1C/C(=C\c2ccccc2Cl)C(=O)/C(=C/c2ccccc2Cl)C1" ?
Result: 3.71 µM

Problem: Check C=CC/C=C/Cc1csc(C(C)(C)C(O)C/C=C/C(=C)CCNC(=O)OC)n1 (stereo not given) too.
Result: > 100 µM

Problem: Subsequent entry: CN(C)CCCNC(CC#N)CCC#N (stereo not given)
Result: > 10 µM

Problem: Now consider CCCCCC(=O)N[C@H](C(=O)N[C@H](C(=O)N(C)[C@H](C(=O)N1CCC[C@H]1C(=O)N1CCC[C@H]1C(=O)O[C@H](C(=O)N1C(=O)C=C(OC)[C@@H]1Cc1ccccc1)C(C)C)C(C)C)C(C)C)C(C)C (Hexanoyl-VV[NMeV]PP-X28) and answer again.
Result: > 100 µM

Problem: // next record "CC1=Nc2ccccc2S/C1=C(/C)NNC(=O)C(N)=O"
Result: > 100 µM

Problem: What do we get for "CN1CC[C@@]2(c3cccc(O)c3)CC(=O)/C(=C/c3ccccc3)[C@H]1C2" ?
Result: 3.46 µM

Problem: Ok, now "COc1ccc(C2=Nc3ccccc3NC(=O)C2)cc1"
Result: 37.1 µM

Problem: Input "O=C(Cc1ccccc1)NNc1nc(NNC(=O)c2ccncc2)nc(Nc2ccc([N+](=O)[O-])cc2)n1"
Result: > 10 µM

Problem: Can you handle O=C(CCC(NC(=O)OCc1ccccc1)C(=O)OCc1ccccc1)Nc1ccc(OCc2ccccc2)cc1 (stereo not given) next?
Result: > 31.6 µM

Problem: Quick one: "CCN(CC)CSc1nc2ccccc2s1"
Result: > 100 µM

* * *

- System: OVCAR-5 ovarian
- assay_overview: NCI tumour cell line growth inhibition, 48 h; in the data active = GI50 below about 0.43 µM; inactive = the rest
Would you mind answering with one of these outcomes? active, inactive

Problem: Look up the recorded call for "CC#C[C@]1(O)CC[C@H]2[C@@H]3CCC4=CC(=O)CCC4=C3[C@@H](c3ccc4c(c3)OCO4)C[C@@]21C" in this test.
Result: inactive

Problem: Query "COC(=O)[C@@]1(C)CC[C@]2(C)CC[C@]3(C)C4=CC=C5C(=CC(=O)C(O)=C5C)[C@]4(C)[C@@H](O)C[C@@]3(C)[C@@H]2C1" next
Result: inactive

Problem: Can you check "Cc1ccc(-c2cn3ccnc3c(-c3ccc(Cl)cc3)n2)cc1" next?
Result: inactive

Problem: Continue with "CC(C)c1cc(-c2n[nH]c(=O)n2-c2ccc3c(ccn3C)c2)c(O)cc1O"
Result: active

Problem: Try "CN1CCC(n2cnc(-c3ccc(F)cc3)c2-c2ccnc(NCCO)n2)CC1" next.
Result: inactive

Problem: Further, for "COc1cccc2c1c(C(=O)C(=O)Nc1cc(C)no1)cn2Cc1ccc(F)cc1" ?
Result: inactive

Problem: Subsequent entry: "Cn1cccc1-c1cc(-c2cccs2)nc(N)c1C#N"
Result: inactive

Problem: And what about the compound "COc1ccc(/C(=C2/O[C@@H]([C@H]3COC(C)(C)O3)[C@H]3OC(C)(C)O[C@@H]23)c2cc(OC)c(OC)c(OC)c2)cc1O" ?
Result: inactive

Problem: And the next one, CC1SC(c2ccccc2)N(CCc2cccs2)C1=O (configuration not stated) ?
Result: inactive

Problem: Entry "NCCn1c(=O)[nH]c(=O)[nH]c1=S" please
Result: inactive

Problem: Request: CC(CCC(=O)O)[C@H]1CCC2[C@@H]3CC[C@@H]4CC(O)CC[C@]4(C)C3CC[C@@]21C (some centres not stated)
Result: inactive

Problem: Another compound: "COc1ccc(-c2ccc(/C=N/n3c(COc4ccc(Cl)cc4Cl)nn(CN4CCOCC4)c3=S)o2)c([N+](=O)[O-])c1"
Result: inactive

Problem: Moving on to "CN(C)CCNc1c2c(c(NCCN(C)C)c3[nH]ccc13)C(=O)c1ccccc1C2=O"
Result: inactive

Problem: Please do the same for CCCC(C)c1cc(Cc2cc(Cl)cc(Cl)c2O)c(O)c(Cc2cc(Cl)cc(Cl)c2O)c1 (configuration not stated) as well.
Result: inactive

Problem: Follow-up entry: COc1cc2c(c(OC)c1)C1c3ccccc3NC(=O)N1CC2 (configuration not stated)
Result: inactive

Problem: Another compound: "NCCOCCOCCNc1nc(Cc2ccccc2)nc(NCCCN2CCCC2=O)n1"
Result: inactive

Problem: Check CCN(CC)CC(C)Nc1ccc([N+](=O)[O-])c2sc3ccccc3c(=O)c12 (configuration not stated) too.
Result: inactive

Problem: Next record, please: "COc1ccc2c(c1)/C(=C\c1c(C)nc3sccn13)C(=O)N2"
Result: inactive

Problem: What do you get for "CCc1nccc2c1nc(-c1nonc1N)n2CC" ?
Result: inactive

Problem: // same read-out, input: "COc1ccc2nc(-c3ccc(-c4noc(-c5cc(OC)c(OC)c(OC)c5)n4)cc3)[nH]c2c1"
Result: inactive

Problem: And then "O=C1c2cccnc2C(=O)c2nc3cc(N4CCN(C5CC5)CC4)ccc3nc21" , what is it?
Result: inactive

Problem: Follow-up entry: "COc1ccc(-c2nn3c(-c4cc(F)c(Cl)cc4Cl)nnc3s2)cc1"
Result: inactive

* * *

- Test system: SK-MEL-5 melanoma
- assay_overview: NCI tumour cell line growth inhibition, 48 h
measured_attribute: TGI

Problem: Give SK-MEL-5 melanoma TGI for COC(=O)c1ccccc1CC1Cc2ccc3c(c2C1=O)CCC3 (stereo not drawn)
Result: 62.3 µM

Problem: Moving on to "Cn1cnc(CCc2ccccc2)n1"
Result: > 100 µM

Problem: Next entry: "COc1cc(C(=O)C/C(CCCC(=O)Nc2ccccc2[N+](=O)[O-])=N/NC(=O)c2cc3ccccc3cc2O)ccc1O"
Result: > 83.7 µM

Problem: Another compound to check: CC1OC(O[C@@H]2OC=C(C=O)[C@@]3(O)CC[C@H](C)[C@@H]23)C(O)C(O)C1O (stereo partly drawn)
Result: > 100 µM

Problem: Same read-out for "Cc1ccc(C2=Nc3cccc4cccc(c34)N2)cc1" ?
Result: > 100 µM

Problem: And the next one, "CSc1ncc2c(C#N)c3sc4ccccc4n3c(=O)c2n1" ?
Result: > 100 µM

Problem: And for "CCOC(=O)c1ccc(N=C2C(=S)N(c3ccc(C(=O)OCC)cc3)C(=N)N2/N=C/c2ccccc2)cc1" ?
Result: 35.6 µM

Problem: Further, for "O=Nc1c(O)cc(Nc2ccc(Br)cc2)c2ccccc12" ?
Result: 3.15 µM

Problem: Also "O=C(CCCN1CCC2(CC1)OC(=O)N(c1ccccc1)C2=O)c1ccccc1" , if possible.
Result: > 100 µM

Problem: Field entry: "Cn1cc(-c2ccc3occ(-c4cccc(-c5ccncc5)c4)c3n2)cn1"
Result: 1.63 µM

Problem: Now try CSc1ccc(C2OC(=O)c3ccccc32)c2ccccc12 (stereo not drawn) .
Result: > 100 µM

Problem: Another compound to look at: "O=C(N/N=C(/c1ccccc1)C(F)(F)F)c1ccncc1"
Result: > 100 µM

Problem: Entry CC1SC(c2ccccc2)N(CCc2cccs2)C1=O (stereo not drawn) please
Result: 3.15 µM

Problem: Now try "NC(=O)NNc1nc2ccccc2c(=O)n1NC(=O)C(=O)Nc1ccc(Cl)cc1Cl" .
Result: > 100 µM

Problem: Okay, and "O=C(/C=C/c1csc(-c2ccccc2)n1)NCc1ccc(C(=O)NCCc2ccccc2)cc1" ?
Result: > 100 µM

Problem: Query "CCS(=O)(=O)Nc1ccc(Nc2c3ccccc3nc3ccccc23)c(OC)c1" next
Result: 12.9 µM

Problem: Next entry: CN(C)C(=O)OC(Cn1cncn1)c1ccc(Cl)cc1Cl (stereo not drawn)
Result: > 100 µM

Problem: Can you handle COC(=O)C1=CC2CCCC1(O)C(C(C)=O)C2 (stereo not drawn) next?
Result: > 100 µM

Problem: Again, but for "O=C(NCCO)Nc1ccc(-c2nc(N3CCOCC3)c3cccn3n2)cc1"
Result: 3.67 µM

Problem: Another: "CCN(CC)CCCNc1nc(=O)[nH]c(C)c1C(=O)Nc1cccc2cc3ccccc3cc12"
Result: > 100 µM

Problem: Please give the result for CC(NNC(=O)c1ccncc1)c1ccc(F)cc1 (stereo not drawn) too.
Result: > 100 µM

Problem: Param item: OC(c1cc(-c2ccccc2)nc2ccc(Cl)cc12)C1CCCCN1 (stereo not drawn)
Result: 3.47 µM

Problem: Entry to check: "Cc1csc(=S)n1OC(=O)NC1CCCCC1"
Result: > 100 µM
